Molecular target: T1, human PD-L1 expressed on 300.19 cells (human, UniProt Q9NZQ7 19-290)
T1 construct: whole, on cells; also called huPD-L1; PD-L1-expressing 300.19 cells
T1 sequence (Q9NZQ7 19-290): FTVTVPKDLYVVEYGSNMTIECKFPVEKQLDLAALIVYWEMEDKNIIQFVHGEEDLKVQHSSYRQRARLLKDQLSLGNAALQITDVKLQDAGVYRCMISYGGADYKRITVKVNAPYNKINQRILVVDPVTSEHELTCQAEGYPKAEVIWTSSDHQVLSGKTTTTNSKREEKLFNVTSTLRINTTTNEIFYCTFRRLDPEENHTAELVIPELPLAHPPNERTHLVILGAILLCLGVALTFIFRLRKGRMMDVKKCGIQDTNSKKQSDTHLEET
Experiment: semi-quantitative ranking in the binding studies (4th column, p-1058; FACS data, p-1056); high number = poorer binder; the column's head says only 'Rank'
Assign Rank to each entry below.
Numbers only.

BAP058-hum04 (antibody, human IgG4 S228P, kappa, V domains shown, Humanized IgG4(S228P)/human kappa mAb expressed in CHO cells) VH: EVQLVQSGAEVKKPGESLRISCKGSGYTFTSYWMYWVRQAPGQGLEWMGRIDPNSGSTKYNEKFKNRVTISVDTSKNQFSLKLSSVTAADTAVYYCARDYRKGLYAMDYWGQGTTVTVSS VL: EIVLTQSPDFQSVTPKEKVTITCKASQDVGTAVAWYLQKPGQSPQLLIYWASTRHTGVPSRFSGSGSGTDFTFTISSLQPEDIATYYCQQYNSYPLTFGQGTKVEIKR : 3
BAP058-hum16 (antibody, human IgG4 S228P, kappa, V domains shown, Humanized IgG4(S228P)/human kappa mAb expressed in CHO cells) VH: QVQLVQSGAEVKKPGASVKVSCKASGYTFTSYWMYWIRQSPSRGLEWLGRIDPNSGSTKYNEKFKNRFTISRDDSKNTAYLQMNSLKTEDTAVYYCARDYRKGLYAMDYWGQGTTVTVSS VL: EIVLTQSPDFQSVTPKEKVTITCKASQDVGTAVAWYQQKPGQAPRLLIYWASTRHTGVPSRFSGSGSGTEFTLTISSLQPDDFATYYCQQYNSYPLTFGQGTKVEIKR : 4
BAP058-hum11 (antibody, human IgG4 S228P, kappa, V domains shown, Humanized IgG4(S228P)/human kappa mAb expressed in CHO cells) VH: EVQLVQSGAEVKKPGATVKISCKVSGYTFTSYWMYWVRQATGQGLEWMGRIDPNSGSTKYNEKFKNRVTITADKSTSTAYMELSSLRSEDTAVYYCARDYRKGLYAMDYWGQGTTVTVSS VL: DVVMTQSPLSLPVTLGQPASISCKASQDVGTAVAWYQQKPGQAPRLLIYWASTRHTGVPSRFSGSGSGTEFTLTISSLQPDDFATYYCQQYNSYPLTFGQGTKVEIKR : 4
BAP058-hum02 (antibody, human IgG4 S228P, kappa, V domains shown, Humanized IgG4(S228P)/human kappa mAb expressed in CHO cells) VH: QVQLVQSGAEVKKPGASVKVSCKASGYTFTSYWMYWVRQATGQGLEWMGRIDPNSGSTKYNEKFKNRFTISRDDSKNTAYLQMNSLKTEDTAVYYCARDYRKGLYAMDYWGQGTTVTVSS VL: DIQMTQSPSSLSASVGDRVTITCKASQDVGTAVAWYLQKPGQSPQLLIYWASTRHTGVPSRFSGSGSGTDFTLTISSLQPEDFATYYCQQYNSYPLTFGQGTKVEIKR : 17

Next binder, Rank to be filled in.
The value of Rank measured for the binder BAP058-hum14 (antibody, human IgG4 S228P, kappa, V domains shown, Humanized IgG4(S228P)/human kappa mAb expressed in CHO cells) VH: QVQLVQSGAEVKKPGASVKVSCKASGYTFTSYWMYWVRQATGQGLEWMGRIDPNSGSTKYNEKFKNRFTISRDDSKNTAYLQMNSLKTEDTAVYYCARDYRKGLYAMDYWGQGTTVTVSS VL: EIVLTQSPDFQSVTPKEKVTITCKASQDVGTAVAWYQQKPGQAPRLLIYWASTRHTGVPSRFSGSGSGTEFTLTISSLQPDDFATYYCQQYNSYPLTFGQGTKVEIKR turned out to be 4
